B1: library; numbered along this chain (parent)
chain: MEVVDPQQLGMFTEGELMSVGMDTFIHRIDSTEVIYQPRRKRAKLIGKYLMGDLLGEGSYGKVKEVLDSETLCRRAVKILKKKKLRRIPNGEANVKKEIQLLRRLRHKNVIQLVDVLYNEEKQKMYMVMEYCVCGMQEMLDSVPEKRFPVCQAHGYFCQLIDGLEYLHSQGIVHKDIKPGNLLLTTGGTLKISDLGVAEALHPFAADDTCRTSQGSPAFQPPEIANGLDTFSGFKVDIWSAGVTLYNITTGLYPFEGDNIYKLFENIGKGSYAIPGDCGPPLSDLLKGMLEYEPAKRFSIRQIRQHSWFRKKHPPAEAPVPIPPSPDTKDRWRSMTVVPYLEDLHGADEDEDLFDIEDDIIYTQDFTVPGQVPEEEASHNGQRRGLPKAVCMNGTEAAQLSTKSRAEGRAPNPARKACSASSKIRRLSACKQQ

variants of: B1; experiment: STK11 functional score (HeLa growth suppression), rescaled enrichment; synonymous median = 1, nonsense median = 0 (normalised score); conditions: with HeLa; variant type: missense
Record form. Attribute: STK11 functional score. Fill in for each entry.
One number for each entry.

> print(dat)
   mutation.string       reported.property  observed
1            P387D  STK11 functional score      1.56
2            G268H  STK11 functional score      1.15
3            G215D  STK11 functional score     0.255
4            D176A  STK11 functional score   -0.0851

// lookup STK11 functional score for D350Y
1.45
